- Test system: COLO 205 colon
- assay_protocol: NCI tumour cell line growth inhibition, 48 h; in the data active = GI50 below about 0.43 µM; inactive = the rest
Outcomes: active, inactive

[
  {
    "molecule": "Cc1ccc(N=Nc2c(O)ccc3n[nH]nc23)cc1",
    "category": "inactive"
  },
  {
    "molecule": "COc1cc2c3c(n([C@@H]4CCOC4)c(=O)c2cc1OC)-c1cc2c(cc1C3=O)OCO2",
    "category": "active"
  },
  {
    "molecule": "O=C(NCc1ccco1)C1CCN(S(=O)(=O)c2ccc(Cl)cc2)CC1",
    "category": "inactive"
  },
  {
    "molecule": "CN(C)CC1C(=O)O[C@H]2[C@H]1CC/C(COC(=O)NCc1ccc(Cn3c(=O)sn(CCCI)c3=O)cc1)=C\\CC[C@@]1(C)O[C@@H]21 (stereo not given in full)",
    "category": "inactive"
  },
  {
    "molecule": "[Cl][Hg][c]1ccc2ccccc2c1",
    "category": "inactive"
  }
]

###

- Tested on: UACC-257 melanoma
- assay_protocol: NCI tumour cell line growth inhibition, 48 h; in the data active = GI50 below about 0.43 µM; inactive = the rest
Outcomes: class 1 = active, class 0 = inactive

[
  {
    "compound": "C[C@@]1(C(=O)O)CCC[C@]2(C)C1CC[C@]13C[C@@](O)(CO)[C@](O)(CC[C@]12O)C3 (stereo not given in full)",
    "category": "class 0"
  },
  {
    "compound": "Cc1ccnc2c(NC(C)CCCN)cc(O)c(O)c12 (stereo not given)",
    "category": "class 0"
  },
  {
    "compound": "CC1=NN(c2cccc(Cl)c2)C(=O)/C1=C\\C=C\\c1ccccc1",
    "category": "class 0"
  },
  {
    "compound": "CC1=CC(C)(C)Nc2ccc(Cc3ccc4c(c3)C(C)=CC(C)(C)N4)cc21",
    "category": "class 0"
  },
  {
    "compound": "OC(CN1CCCC2CCCCC21)c1cc2ccccc2c2ccccc12 (stereo not given)",
    "category": "class 0"
  },
  {
    "compound": "Cc1ccc(N=Nc2c(O)ccc3n[nH]nc23)cc1",
    "category": "class 0"
  },
  {
    "compound": "C[C@H]1COCCN1c1nc(-c2cnc(N)cc2C(F)F)nc(N2CCOCC2)n1",
    "category": "class 1"
  },
  {
    "compound": "COc1ccc(/C=C\\c2cc(OC)c(OC)c(OC)c2)cc1OC(=O)CC(N)C(=O)O (stereo not given)",
    "category": "class 0"
  },
  {
    "compound": "c1cc(C2CCCCC2)ccc1-c1cnc2nonc2n1",
    "category": "class 0"
  },
  {
    "compound": "CCC[n+]1cc2cc3c(cc2c2c1-c1cc4c(cc1C2)OCO4)OCO3 (tested in a mixture with another compound)",
    "category": "class 0"
  }
]

###

- Test system: MALME-3M melanoma
- assay_protocol: NCI tumour cell line growth inhibition, 48 h
property_label: TGI

[
  {
    "compound": "CC1(C2COC(=O)C2)SCCCS1 (configuration not stated)",
    "result": "> 100 µM"
  },
  {
    "compound": "CCCS(=O)c1nc(COC(=O)NC)c(COC(=O)NC)n1C (configuration not stated)",
    "result": "> 100 µM"
  },
  {
    "compound": "NC(Cc1cccnn1)C(=O)O (configuration not stated)",
    "result": "> 100 µM"
  },
  {
    "compound": "OC(CN1CCCC2CCCCC21)c1cc2ccccc2c2ccccc12 (configuration not stated)",
    "result": "3.45 µM"
  },
  {
    "compound": "COc1cc2c(c(OC)c1OC)C(=O)[C@@H](O)[C@H]2NC(N)=O",
    "result": "> 100 µM"
  },
  {
    "compound": "CCOC(=O)C(=O)Nc1c(C)cccc1C(C)(C)C",
    "result": "> 100 µM"
  },
  {
    "compound": "Clc1ccc(C(Cc2ccccc2)c2c(Cl)nc(N3CCNCC3)nc2Cl)cc1 (configuration not stated)",
    "result": "28.4 µM"
  },
  {
    "compound": "CCOC(=O)c1c(N2CCOCC2)ncn(-c2cccc(Cl)c2)c1=O",
    "result": "> 100 µM"
  },
  {
    "compound": "C[C@]12Cc3conc3C(O)=C1CC[C@@H]1C2CC[C@@]2(C)C1CC[C@]2(C)O (some centres not stated)",
    "result": "59.2 µM"
  },
  {
    "compound": "Cc1nc2c(O)c3c(c(O)c2nc1C)C1C=CC3CC1",
    "result": "26.1 µM"
  },
  {
    "compound": "CNCC(=O)NC(CO)C(=O)NC(CO)C(=O)NC1C(C(N)=O)OC(n2ccc(N)nc2=O)C(O)C1O (configuration not stated)",
    "result": "7.58 µg/mL"
  },
  {
    "compound": "O=C(Sc1n[nH]c(=O)[nH]c1=O)c1cccc2nc3ccccc3nc12",
    "result": "24.8 µM"
  },
  {
    "compound": "O=C(COC(=O)c1cccc2c(=O)c3ccccc3[nH]c12)Nc1ccc(Cl)cc1",
    "result": "> 100 µM"
  },
  {
    "compound": "Nc1nc(Cl)c(N)c(NCC2(CO)CCC(CCc3ccccc3)C2)n1 (configuration not stated)",
    "result": "30.3 µM"
  },
  {
    "compound": "O=C1C[C@@H]2[C@@H](c3ccccc3)[C@@H]3C(=O)c4ccccc4NC(=O)[C@H]3[C@]2(O)c2ccccc2N1",
    "result": "> 100 µM"
  },
  {
    "compound": "O=C(/C=C/c1ccccc1)c1cc(C(=O)/C=C/c2ccccc2)c(O)cc1O",
    "result": "> 100 µM"
  },
  {
    "compound": "CNC(=O)CCCNC(=O)CCCCC(=O)N(C)C",
    "result": "> 100 µM"
  },
  {
    "compound": "c1ccc2c(c1)SCCc1cn[nH]c1-2",
    "result": "> 100 µM"
  },
  {
    "compound": "O=C1N/C(=N\\N=C\\c2ccccc2)C2(CCCCC2)O1",
    "result": "> 100 µM"
  },
  {
    "compound": "COc1ccc(C2Oc3c(cccc3-c3c(-c4ccc(O)cc4)oc4cc(O)cc(O)c4c3=O)C(=O)C2O)cc1O (configuration not stated)",
    "result": "> 100 µM"
  },
  {
    "compound": "O=C(O)/C(Cl)=C(Cl)/C=N/NC(=O)c1cc2ccccc2cc1O",
    "result": "> 100 µM"
  },
  {
    "compound": "CC(Cc1ccccc1)N(C)Cc1nc(C2CCC([N+](=O)[O-])O2)no1 (configuration not stated)",
    "result": "25.6 µM"
  }
]
